# procedure-summary: folding enthalpy; higher = less favourable; fluorescence melt of hairpins on a sequencing array, two-state fit
# run-conditions: sodium 0.088 M
assay-readout: folding enthalpy

Known folding enthalpy results, listed for orientation:
[[record]]
input_sequence = "GATCCTCAGAGGATC ((((((...))))))"
observed_result = "-31.6 kcal/mol"

[[record]]
input_sequence = "GTTATGCGAAAGCAAAC (((.(((....))))))"
observed_result = "-14.3 kcal/mol"

[[record]]
input_sequence = "CCGAAGAAATTCGG (((((....)))))"
observed_result = "-19.2 kcal/mol"

[[record]]
input_sequence = "GATCCCCCCAGGGATC ((((((....))))))"
observed_result = "-38.1 kcal/mol"

[[record]]
input_sequence = "GCTTCCGAAAGGAACAGC ((((((....)))..)))"
observed_result = "-15.1 kcal/mol"


Q: Recorded folding enthalpy for GATCTCAGGAGAGATC ((((((....)))))) , please?
Ans: -34.7 kcal/mol

Q: // returns reported folding enthalpy for input GTGGTTCGAAAGAACAC (((.(((....))))))
Ans: -16.8 kcal/mol

Q: For the sequence GCTCCGGGAAACTGGAGC (((((.(....).))))) , what folding enthalpy is on record?
Ans: -45.7 kcal/mol

Q: Which folding enthalpy is listed for GTAATCCGAAAGGATAC (((.(((....)))))) ?
Ans: -14.6 kcal/mol

Q: Query (sequence): GGACTCGGAAACGGGTTC (.((.((....)).)).) ; field requested: folding enthalpy
Ans: -25.7 kcal/mol

Q: Record request: folding enthalpy value, item GGTCTCCGAAAGGACACC (((.(((....))).)))
Ans: -24.5 kcal/mol

Q: So what's the measured folding enthalpy for this one? GCTTTGCGAAAGCTGAGC (((..((....))..)))
Ans: -15.2 kcal/mol

Q: What value of measured folding enthalpy is listed for GATCTCACACGAGATC ((((((....)))))) ?
Ans: -41.5 kcal/mol

Q: Suppose we examine the sequence GATCATACCTATGATC ((((((....)))))) ; what folding enthalpy value has been reported?
Ans: -41.5 kcal/mol

Q: Please report the recorded folding enthalpy for GCCGTAACGAAAGTTGGC (((..(((....)))))) .
Ans: -20.9 kcal/mol

Q: Endpoint output: folding enthalpy of GAGGACGGAAACGTTCTC (((.(((....))).))) . Value?
Ans: -41.9 kcal/mol

Q: Would you kindly share the measured folding enthalpy for GCATTTCGAAAGAATTGC (((.(((....))).))) ?
Ans: -33.7 kcal/mol

Q: Consider the sequence shown here: GCTGTGCGAAAGCTCAGC ((((.((....)).)))) What is its recorded folding enthalpy?
Ans: -36.8 kcal/mol

Q: Bench note: what folding enthalpy did GACAGACCGAAAGGTGTC (((..(((....)))))) show?
Ans: -19.5 kcal/mol

Q: # get_value(readout='folding enthalpy', item= GTCCGGCCGAAAGGCGAC (((..(((....)))))) )
Ans: -12.8 kcal/mol

Q: Quick one: folding enthalpy for GATCGGACAGCCGATC ((((((....)))))) ?
Ans: -36.9 kcal/mol

Q: Which folding enthalpy is reported for this sequence? GACCCAGGAAACCAGGTC ((((..(....)..))))
Ans: -24.3 kcal/mol

Q: Record request: folding enthalpy value, item CGAACACGGAAACGTTCG (((..(((....))))))
Ans: -32.4 kcal/mol

Q: // query folding enthalpy value for entry GGAAGTGGAAACGCTTCC (((((.(....).)))))
Ans: -41.7 kcal/mol

Q: # folding enthalpy lookup, item GATCGGCGTCCCGATC ((((((....))))))
Ans: -40.3 kcal/mol

Q: Request the reported folding enthalpy associated with GGTAACGAAAGTTTTACC ((((((....)))..)))
Ans: -9.8 kcal/mol

Q: Bench note: what folding enthalpy did GTACATCGAAAGATTTAC (((.(((....))).))) show?
Ans: -17.8 kcal/mol

Q: Any idea what its folding enthalpy is? The sequence is GTCGCCGGAAACAGCGAC (((((.(....).)))))
Ans: -44.9 kcal/mol

====

# procedure-summary: melting temperature; fluorescence melt of hairpins on a sequencing array, two-state fit, raised by 9.35 °C to match UV melts
# run-conditions: sodium 0.088 M
assay-readout: Tm (°C)
Entry rule: numbers only, all in °C.

Answered examples (4):
[[record]]
input_sequence = "CGTTCCGGAAACGGCACG (((.(((....))).)))"
observed_result = 48.5

[[record]]
input_sequence = "GAGCGCGGAAACGCGCCC (.(((((....))))).)"
observed_result = 59.7

[[record]]
input_sequence = "GACTGCGAAAGCAGTGTC ((((((....)))..)))"
observed_result = 58.6

[[record]]
input_sequence = "GGTAACGGAAACGTTGTC (..((((....))))..)"
observed_result = 31.6


Q: Return reported Tm; argument: GCTACGCGAAAGCGGTGC ((..(((....)))..))
Ans: 56

Q: Find the recorded Tm belonging to GTGCCACGAAAGTGTCAC (((.(((....))).))) and report it.
Ans: 53.1

Q: Query (sequence): GATCGATGTTCGATC ((((((...)))))) ; field requested: Tm
Ans: 51

====

# procedure-summary: melting temperature; fluorescence melt of hairpins on a sequencing array, two-state fit, raised by 9.35 °C to match UV melts
# run-conditions: sodium 0.088 M
Listed here: items and their measured Tm.
Numeric only. Scale: °C

[[record]]
input_sequence = "GCCGCCGAAAGGCAGGGC ((((((....)))..)))"
assay_readout = "Tm"
observed_result = 66.8

[[record]]
input_sequence = "GCACGCGGAAACACGCGC ((.((.(....).)).))"
assay_readout = "Tm"
observed_result = 40.1

[[record]]
input_sequence = "GATGCGGAAACGCATC ((((((....))))))"
assay_readout = "Tm"
observed_result = 68.2


Q: Entry CGTTAGAAATAACG (((((....))))) : reported Tm = ?
Ans: 37

====

# procedure-summary: folding enthalpy; higher = less favourable; fluorescence melt of hairpins on a sequencing array, two-state fit
# run-conditions: sodium 0.088 M
# folding enthalpy values compiled below
Report the figure in kcal/mol without appending any unit label.

Below, 2 sequences whose answers are already recorded.
[[record]]
input_sequence = "GATCGGGCAGCCGATC ((((((....))))))"
units_label = "kcal/mol"
observed_result = -40.3

[[record]]
input_sequence = "GATCCGTCGGCGGATC ((((((....))))))"
units_label = "kcal/mol"
observed_result = -39.3


Q: Would you mind telling me what folding enthalpy value was observed for GTCACGGGAAACTGTGAC (((((.(....).))))) ?
Ans: -40.1

====

# procedure-summary: folding enthalpy; higher = less favourable; fluorescence melt of hairpins on a sequencing array, two-state fit
# run-conditions: sodium 0.088 M
Would you mind sorting the entries by folding enthalpy according to these classes? one: < -30 kcal/mol; two: ≥ -30 kcal/mol and < -20 kcal/mol; three: ≥ -20 kcal/mol

Q: Please report the category associated with GTATGGCGAAAGCCGTAC (((.(((....))).))) , nothing else.
Ans: two

Q: Class (by measured folding enthalpy) for GGTATGACGAAAGTCACC (((..(((....))))))
Ans: three

Q: Please indicate the class for GTCTGACGAAAGTCCGAC (((.(((....))).))) based on its folding enthalpy.
Ans: two

====

# procedure-summary: melting temperature; fluorescence melt of hairpins on a sequencing array, two-state fit, raised by 9.35 °C to match UV melts
# run-conditions: sodium 0.088 M
Reported Tm values are given for each entry in this list.
Write the number in °C without appending the unit.

Consider the worked cases shown below.
[[record]]
input_sequence = "GACTCCCGAAAGGGTGTC (((.(((....))).)))"
assay_readout = "Tm"
units_label = "°C"
observed_result = 58.3

[[record]]
input_sequence = "GATCAACCTGTTGATC ((((((....))))))"
assay_readout = "Tm"
units_label = "°C"
observed_result = 55.2

[[record]]
input_sequence = "GCTGGGGGAAACCCTAGC (((.(((....))).)))"
assay_readout = "Tm"
units_label = "°C"
observed_result = 53.2

[[record]]
input_sequence = "GACCGGCGAAAGCCGTC (((.(((....))))))"
assay_readout = "Tm"
units_label = "°C"
observed_result = 49.1

[[record]]
input_sequence = "GATCGAGCTATCGATC ((((((....))))))"
assay_readout = "Tm"
units_label = "°C"
observed_result = 58.4


Q: Name the recorded Tm for GATAGACGAAAGTCATC (((.(((....)))))) .
Ans: 38.4

Q: GET /values?readout=Tm&item= GTGTGTGGAAACACGCAC (((.(((....))).)))
Ans: 58.7

Q: # get_value(readout='Tm', item= GGGAAAGGAAACTTCCCC (((.(((....))).))) )
Ans: 36.8

Q: // Tm lookup, key: GGCCGCGGAAACGCAGCC (((.(((....))).)))
Ans: 61.3

Q: What measured Tm goes with GGCTTGCGAAAGCAGCC (((.(((....)))))) ?
Ans: 65.3

Q: Endpoint output: Tm of GATCAGTCCCCTGATC ((((((....)))))) . Value?
Ans: 49.3

Q: Look up Tm: GGCGAGTCGAAAGACGCC (((..(((....))))))
Ans: 56.3

Q: GET /values?readout=Tm&item= GATCAGGTTACTGATC ((((((....))))))
Ans: 57.6

Q: # input sequence: GCCTACGAAAGTAGAGGC ((((((....)))..))) ; wanted: its Tm
Ans: 49.3

Q: Could you tell me which Tm is on file for GATCAGAAGACTGATC ((((((....)))))) ?
Ans: 44.9
